Sourced from patent US12077503B2

- Test system: Galium (catchweed bedstraw, Galium aparine)
- assayDetails: Test A postemergence
- Assay type: in vivo
- conditionLabel: Galium, post-emergence, 240 h, Postemergence, 500 g ai/ha; visual injury, 0 to 100 scale (0 no effect, 100 complete control), approx. 10 d; read-out: Plant response rating, Galium
Listed below: pest or weed control at 500 g/ha values for each entry.
metricName: pest or weed control at 500 g/ha (%)

compound	metricName	experimentalResult
Cc1c(F)ccc([C@H]2CNC(=O)[C@@H]2C(=O)Nc2ccc(F)cc2F)c1F	pest or weed control at 500 g/ha	30
O=C1NC[C@H](c2cnc(C(F)(F)F)nc2)[C@H]1C(=O)Nc1cccc(F)c1F	pest or weed control at 500 g/ha	30
CN1C[C@H](c2ccc(OC(F)F)cc2)[C@@H](C(=O)Nc2ccccc2F)C1=O	pest or weed control at 500 g/ha	70
CS(=O)(=O)c1ccccc1NC(=O)[C@H]1C(=O)NC[C@@H]1c1ccc2c(c1)CCO2	pest or weed control at 500 g/ha	40
Cc1cc([C@H]2CN(C)C(=O)[C@@H]2C(=O)Nc2ccccc2[S+](C)[O-])ccc1F (stereo partly drawn)	pest or weed control at 500 g/ha	40
CC(C)c1cccc([C@H]2CN(C)C(=O)[C@@H]2C(=O)Nc2cccc(F)c2F)c1	pest or weed control at 500 g/ha	50
